- Species: Homo sapiens
- Procedure Details: Selectivity of Ki for human recombinant adenosine A2A receptor to Ki for human recombinant adenosine A1 receptor
Label yes when Ratio Ki >= 2000; otherwise no.

# Compound, Discrete Label
records = [
    ("C[C@@]1(O)[C@H](O)[C@@H](CCl)O[C@H]1n1cnc2c(NC3CCCC3)ncnc21", "yes"),
    ("C[C@@]1(O)[C@H](O)[C@@H](CCl)O[C@H]1n1cnc2c(NC3CCCC3)nc(Cl)nc21", "no"),
]

-- ask Assess whether reported Ratio Ki for O[C@@H]1[C@H](O)[C@@H](CCl)O[C@H]1n1cnc2c(NC3CCCC3)ncnc21 sits at 2000 or higher.
-- reply no

###

- Species: Homo sapiens
- Procedure Details: Selectivity of Ki for human recombinant adenosine A2A receptor to Ki for human recombinant adenosine A1 receptor
Each record's class is read off its Ratio Ki using these ranges: lo: < 1000; mid: ≥ 1000 and < 2000; hi: ≥ 2000

Please review the following examples before continuing.
# Molecule, Discrete Label
measured = [
    ("C[C@@]1(O)[C@H](O)[C@@H](CO)O[C@H]1n1cnc2c(NC3CC4CCC3C4)ncnc21 (mixture of isomers)", "hi"),
    ("C[C@@]1(O)[C@H](O)[C@@H](CO)O[C@H]1n1cnc2c(NC3CC4CCC3C4)nc(Cl)nc21 (mixture of isomers)", "mid"),
    ("O[C@@H]1[C@H](O)[C@@H](CSc2ccccc2F)O[C@H]1n1cnc2c(NC3CCCC3)ncnc21", "lo"),
    ("C[C@@]1(O)[C@H](O)[C@@H](CCl)O[C@H]1n1cnc2c(NC3CC4CCC3C4)nc(Cl)nc21 (mixture of isomers)", "hi"),
    ("OC[C@H]1O[C@@H](n2cnc3c(NC4CC5CCC4C5)ncnc32)[C@H](O)[C@@H]1O (mixture of isomers)", "hi"),
]

-- ask Band for O[C@@H]1[C@H](O)[C@@H](CSc2ccccc2F)O[C@H]1n1cnc2c(NC3CCOC3)ncnc21 (some centres undefined) ?
-- reply lo

-- ask Band for O[C@@H]1[C@H](O)[C@@H](CCl)O[C@H]1n1cnc2c(NC3CCCC3)nc(Cl)nc21 ?
-- reply mid

###

- Species: Homo sapiens
- Procedure Details: Selectivity of Ki for human recombinant adenosine A2A receptor to Ki for human recombinant adenosine A1 receptor
Assay Endpoint: Ratio Ki
Answers are plain numbers.

These recorded examples may help you get a feel for the data.
# Compound, Ratio Ki
data = [
    ("C[C@@]1(O)[C@H](O)[C@@H](CCl)O[C@H]1n1cnc2c(NC3CC4CCC3C4)ncnc21 (mixture of isomers)", 2630),
    ("OC[C@H]1O[C@@H](n2cnc3c(NC4CC5CCC4C5)nc(Cl)nc32)[C@H](O)[C@@H]1O (mixture of isomers)", 1120),
]

-- ask // query Ratio Ki value for entry O[C@@H]1[C@H](O)[C@@H](CCl)O[C@H]1n1cnc2c(NC3CC4CCC3C4)nc(Cl)nc21 (mixture of isomers)
-- reply 1270

###

- Species on record: Homo sapiens
- Procedure Details: Selectivity of Ki for human recombinant adenosine A2A receptor to Ki for human recombinant adenosine A1 receptor
Assay Endpoint: Ratio Ki

These recorded examples may help you get a feel for the data.
# Compound, Ratio Ki
rows = [
    ("C[C@@]1(O)[C@H](O)[C@@H](CSc2ccccc2F)O[C@H]1n1cnc2c(NC3CCCC3)ncnc21", "> 60"),
    ("C[C@@]1(O)[C@H](O)[C@@H](CSc2ccccc2F)O[C@H]1n1cnc2c(NC3CCCC3)nc(Cl)nc21", "> 47"),
    ("C[C@@]1(O)[C@H](O)[C@@H](CSc2ccccc2F)O[C@H]1n1cnc2c(NC3CC4CCC3C4)ncnc21 (mixture of isomers)", "> 94"),
]

// switching to the query compound
-- ask // query Ratio Ki value for entry C[C@@]1(O)[C@H](O)[C@@H](CSc2ccccc2F)O[C@H]1n1cnc2c(NC3CC4CCC3C4)nc(Cl)nc21 (mixture of isomers)
-- reply > 34
